- test_system: Lysine-specific histone demethylase 2 (Homo sapiens)
- Sequence (Q8NB78 whole entry): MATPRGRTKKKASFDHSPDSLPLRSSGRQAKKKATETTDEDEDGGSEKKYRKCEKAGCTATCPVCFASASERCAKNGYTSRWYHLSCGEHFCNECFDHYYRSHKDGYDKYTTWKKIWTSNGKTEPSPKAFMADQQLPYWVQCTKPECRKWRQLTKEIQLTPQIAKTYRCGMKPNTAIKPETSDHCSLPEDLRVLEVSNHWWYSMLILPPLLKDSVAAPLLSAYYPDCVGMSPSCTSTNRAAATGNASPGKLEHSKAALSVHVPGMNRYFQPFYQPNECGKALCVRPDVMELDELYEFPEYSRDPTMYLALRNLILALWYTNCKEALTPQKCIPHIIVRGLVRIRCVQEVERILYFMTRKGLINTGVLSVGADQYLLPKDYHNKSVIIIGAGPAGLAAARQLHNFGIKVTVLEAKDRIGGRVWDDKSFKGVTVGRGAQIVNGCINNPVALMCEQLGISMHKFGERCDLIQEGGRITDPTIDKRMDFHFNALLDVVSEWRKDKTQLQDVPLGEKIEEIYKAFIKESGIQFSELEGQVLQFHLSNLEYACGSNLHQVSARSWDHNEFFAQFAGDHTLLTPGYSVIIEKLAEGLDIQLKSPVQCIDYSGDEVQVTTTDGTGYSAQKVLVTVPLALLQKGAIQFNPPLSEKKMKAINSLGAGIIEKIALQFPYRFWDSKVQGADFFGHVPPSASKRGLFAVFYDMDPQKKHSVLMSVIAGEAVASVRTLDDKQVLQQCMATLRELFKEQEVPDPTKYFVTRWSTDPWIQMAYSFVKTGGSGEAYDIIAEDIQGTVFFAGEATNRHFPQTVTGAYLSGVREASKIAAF
Record set: IC50 | Lysine-specific histone demethylase 2 (Homo sapiens) | literature, multiple sources.

Consider the following illustrative entries.
- CC(C)C[C@H](NC(=O)[C@H](CCCNN)NC(=O)[C@H](CO)NC(=O)[C@H](CCCNC(=N)N)NC(=O)[C@@H]1CCCN1)C(=O)N[C@H](C(=O)N[C@@H](CCCNC(=N)N)C(=O)N[C@@H](CCCCN)C(=O)N1CCC[C@H]1C(=O)N[C@@H](CO)C(=O)N[C@@H](CC(=O)O)C(=O)N1CCC[C@H]1C(=O)N[C@@H](CC(N)=O)C(=O)N[C@@H](CCCNC(=N)N)C(=O)N[C@@H](CCCCN)C(=O)N1CCC[C@H]1C(=O)N[C@@H](CC(N)=O)C(=O)N[C@@H](Cc1ccc(O)cc1)C(=O)N[C@@H](CO)C(=O)N[C@@H](CCC(N)=O)C(N)=O)C(C)C: > 50 µM
- COCc1cccc(NC(=O)c2cc3sccc3n2C)c1: > 100 µM
- N[C@@H]1C[C@H]1c1ccc(NC(=O)c2ccc(N3CCOCC3)c(NC(=O)OCc3ccccc3)c2)cc1 (relative stereo): 5.7 µM

Proceed to the following item.
[Q] Write down the reported IC50 (system: Lysine-specific histone demethylase 2 (Homo sapiens)) of COc1ncccc1CN[C@@H]1[C@H]2Cc3ccccc3[C@H]21 (racemic)
[A] > 100 µM
